Numbers sourced from patent US6392045B1.

# test.system: nAChRs comprised of α4 and β2 subunits (Rattus norvegicus, UniProt P09483+P12390)
# Sequence (P09483 31-630): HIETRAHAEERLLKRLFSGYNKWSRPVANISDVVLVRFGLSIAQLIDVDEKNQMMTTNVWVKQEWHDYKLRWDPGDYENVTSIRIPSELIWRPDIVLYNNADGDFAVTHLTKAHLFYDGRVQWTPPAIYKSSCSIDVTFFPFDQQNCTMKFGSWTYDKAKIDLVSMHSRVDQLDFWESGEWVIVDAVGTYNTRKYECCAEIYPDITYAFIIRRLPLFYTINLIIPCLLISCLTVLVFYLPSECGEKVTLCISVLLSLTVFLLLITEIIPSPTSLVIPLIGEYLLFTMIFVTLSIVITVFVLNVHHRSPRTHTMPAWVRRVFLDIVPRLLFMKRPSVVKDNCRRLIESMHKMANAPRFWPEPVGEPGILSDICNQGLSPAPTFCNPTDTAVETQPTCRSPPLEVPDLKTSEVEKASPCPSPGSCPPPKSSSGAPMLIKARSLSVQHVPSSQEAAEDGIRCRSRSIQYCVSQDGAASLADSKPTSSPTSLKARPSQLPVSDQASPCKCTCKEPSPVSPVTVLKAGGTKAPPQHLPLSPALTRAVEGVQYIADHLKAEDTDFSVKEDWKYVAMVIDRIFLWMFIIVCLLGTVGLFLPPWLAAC
# Sequence (P12390 25-500): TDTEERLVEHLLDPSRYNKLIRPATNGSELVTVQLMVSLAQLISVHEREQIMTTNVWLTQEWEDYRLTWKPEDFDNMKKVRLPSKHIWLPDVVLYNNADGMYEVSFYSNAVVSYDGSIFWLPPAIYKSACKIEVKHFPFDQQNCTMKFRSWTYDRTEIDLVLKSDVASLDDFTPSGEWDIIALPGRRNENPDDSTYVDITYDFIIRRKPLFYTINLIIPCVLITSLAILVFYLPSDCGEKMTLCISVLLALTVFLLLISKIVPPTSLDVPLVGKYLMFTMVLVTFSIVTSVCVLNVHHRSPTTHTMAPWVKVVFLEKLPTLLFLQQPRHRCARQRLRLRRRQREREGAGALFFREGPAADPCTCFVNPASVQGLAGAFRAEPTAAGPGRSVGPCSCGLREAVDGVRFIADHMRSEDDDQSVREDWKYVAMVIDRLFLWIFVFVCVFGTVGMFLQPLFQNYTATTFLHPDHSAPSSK
# protocol.description: In vitro inhibition of 3H-cytisine binding
# IC50 binned as low range (below 20 nM), mid range (20 nM to below 600 nM), high range (600 nM or more)

*Q* State the band of COc1cncc(C2=CC3CCCC(C2)N3C)c1 (racemic)
*A* low range

*Q* State the band of CN1C2C=C(c3cncc(-c4ccccc4)c3)CC1CCC2 (racemic)
*A* mid range

*Q* State the band of `CN1[C@@H]2CCC[C@H]1C[C@H](c1cccnc1)C2`
*A* low range

*Q* State the band of CC(=O)Nc1cccc(C2=CC3CCCC(C2)N3C)c1.CC(=O)O (racemic) [Compound 2c, Acetic Acid Salt]
*A* high range

*Q* State the band of CN1C2C=C(c3cccc([N+](=O)[O-])c3)CC1CCC2.O=C(O)/C=C/C(=O)O (racemic)
*A* high range

====

# test.system: nAChRs comprised of α4 and β2 subunits (Rattus norvegicus, UniProt P09483+P12390)
# protocol.description: In vitro inhibition of 3H-cytisine binding
Measured IC50, listed per entry for reference.
Report the value in µM with no unit label.

compound	IC50, µM
CC(=O)C1=CC2CCCC(C1)N2C.O=C(O)/C=C/C(=O)O (racemic)	0.59
CN1C2C=C(c3cncc(-c4ccc(Oc5ccccc5)cc4)c3)CC1CCC2.O=C(O)/C=C/C(=O)O (racemic)	0.35
CN1C2C=C(c3cccnc3)CC1CCC2.O=C(O)/C=C/C(=O)O (racemic)	0.023

*Q* Query the reported IC50 for nAChRs comprised of α4 and β2 subunits (Rattus norvegicus, UniProt P09483+P12390); item: CN1C2C=C(c3cncnc3)CC1CCC2.O=C(O)/C=C/C(=O)O (racemic)
*A* 0.078
